systemTested: Pr50GagΔp6 (HIV-1, UniProt P12493 1-448)
testMethodNotes: ITC; ITC at 30 C in TBS with 1 mM TCEP (pH not stated); 8 uM (6-10) protein in cell, 40 uM (15-50) nucleic acid in syringe; one-site model
details: protein: recombinant; tags: C-terminal His; hairpin
endpoint: Kd (nM)
The reply should be a number in nM, with the unit left off.

The binder listed as GGACUAGCGGAGGCUAGUCC (structured_RNA) [Psi SL3 RNA (20mer)] has a reported Kd of 98
